assay notes: Human HepG2 cell viability assay in 384 well format
Type: toxicity, cell-based
Set-up: dose 125 nL, time 70.5 hour; concentration not given beside the values
measurement conditions: HepG2 cells, read-out: Inhibition
endpoint label: cytotoxicity at 70.5 h (%)
Numbers only, in %.

// below: answered compounds
cytotoxicity at 70.5 h measured on `N#CCCN(C(=O)COC1CCCC1)C1CC1` = -0.353

cytotoxicity at 70.5 h measured on `O=C(C1=CCCC1)N1CCC[C@]2(C[C@@H](OCc3ccccn3)CO2)C1` = -15.2

cytotoxicity at 70.5 h measured on `Cc1ccc(F)cc1-c1ccc(N)nc1` = 15.8

cytotoxicity at 70.5 h measured on `Cc1nnc(SCC(=O)NCc2ccc3c(c2)CCC(=O)N3)s1` = 2.74

For each of the compounds below, note its cytotoxicity at 70.5 h.
1. Cc1oncc1C(=O)N1CCC2(CCN(Cc3cccc(F)c3)C2=O)C1 (configuration not stated)
2. Cc1noc(C2CCC3(CCN(C(=O)c4c(C)noc4C)CC3)O2)n1 (configuration not stated)
3. CCc1c(C)sc2c1c(N)nc(=O)n2CCN(C)C
4. O=C(NCCO)C1CN(c2cncnc2)CCO1 (configuration not stated)
5. CC(=O)c1cc2ncc(C(=O)NC3CCCCC3)cc2[nH]1
6. CCn1cc(CN2CCCN(C(=O)c3ccco3)CC2)cn1

1. -2.01
2. -5.47
3. 18.9
4. -8.3
5. 0.178
6. -6.43

For each of the compounds below, note its cytotoxicity at 70.5 h.
1. CC(=O)NC1CCN(c2cnc(C3CCNCC3)cn2)CC1
2. CCC1c2ccsc2CCN1C(=O)NCCc1ccccn1 (configuration not stated)
3. CCC(NC(=O)Cn1ccc(=O)n(C)c1=O)c1ccccc1OC (configuration not stated)
4. CC(C)Nc1cc(N2CCCC3(CN(C)C(=O)O3)C2)ncn1 (configuration not stated)
5. CCOc1ccc(C(=O)CCC(=O)NCCc2nncn2CC)cc1C

[-3.96, -9.75, -7, 15, 22.5]

For each of the compounds below, note its cytotoxicity at 70.5 h.
1. CC(=O)N1CCCC1c1cc(Nc2nnc(C)s2)nc(C)n1 (configuration not stated)
2. COc1cc(N2CC[C@H](O)[C@@H]2Cc2cccnc2)ncn1
3. COCCn1ccc(NC(=O)Nc2cccc(C#N)c2)n1
4. Cc1cc(CN2CC[C@H]3C[C@H](c4nc(C5CC5)cs4)O[C@@H]3C2)no1

1. 17.2
2. -10.8
3. -9.39
4. -4.1

For each of the compounds below, note its cytotoxicity at 70.5 h.
1. O=c1c(NCc2ccco2)c(NCC(O)CN2CCOCC2)c1=O (configuration not stated)
2. O=C(O)c1ccnc2c(Br)cccc12
3. CC(=O)Nc1nc(CN(C)C2CCCN(c3cccnn3)C2)cs1 (configuration not stated)
4. CC1CN(C)CCN1C(=O)COc1cccc(Oc2ccccn2)c1 (configuration not stated)
5. O=C(NCC(F)(F)C(F)F)c1cccnc1
6. c1cnc(N2CC3(CCN(C4CCOCC4)CC3)c3ccccc32)nc1

-6.2
-3.81
-13.5
18.2
-3.25
-0.647

# credit: ChEMBL document CHEMBL3507680
